Tested on: Zea mays (ZEAMX)
Experiment: Pre-emergence herbicidal test
Format: in vivo
Conditions: 1000 g/ha, evaluated after 13 days
MEASUREMENT LABEL: percentage damage caused to the plant, five-point scale, ZEAMX

Take a look at these entries with their results.
C=CCOC(=O)c1nn(-c2ccc(OC(F)(F)F)cc2)c2cccc(S(C)(=O)=O)c2c1=O [Compound P80]
1 (1=10-20%)
CS(=O)(=O)c1cccc2c1c(=O)c(C(=O)OC1CCOC1)nn2-c1ccc(OC(F)(F)F)cc1 (stereo not shown) [Compound P70]
1 (1=10-20%)
CCCCCOC(=O)c1nn(-c2ccc(OC(F)(F)F)cc2)c2cccc(S(C)(=O)=O)c2c1=O [Compound P75]
1 (1=10-20%)
CC(C)Cc1ccc2c(c1S(C)(=O)=O)c(=O)c(C(=O)O)nn2-c1ccc(OC(F)(F)F)cc1 [Compound P15]
0 (0=0%)
O=C(O)c1nn(-c2ccc(OC(F)(F)F)cc2)c2cccc([S+]([O-])C3CC3)c2c1=O (stereo not shown) [Compound P31]
0 (0=0%)

What value of percentage damage caused to the plant, five-point scale, ZEAMX has been reported for the following compound? CS(=O)(=O)c1c(F)ccc2c1c(=O)c(C(=O)O)nn2-c1ccc(OC(F)(F)F)cc1 [Compound P20]
0 (0=0%)

Now the same for CCOC(=O)c1nn(-c2ccc(OC(F)(F)F)cc2)c2ccc(CC(C)C)c(S(C)(=O)=O)c2c1=O [Compound P45]
0 (0=0%)

These entries and their values trace back to patent US20230250066A1.
